Tested on: MDA-MB-468
Test: Antiproliferative activity against human MDA-MB-468 cells assessed as cell growth inhibition after 48 hrs by SRB assay
Assay type: functional
Label key: TRUE means GI50 under 0.4 µM; FALSE means GI50 of 0.4 µM or more.

LINE_NOTATION: O=C(Nc1ccc2ncnc(Nc3ccc(Oc4cccc(F)c4)c(Cl)c3)c2c1)c1ccc(CNCCO)cc1
LABEL_VALUE: FALSE
//
LINE_NOTATION: Cc1cccc(Oc2ccc(Nc3ncnc4ccc(NC(=O)CN(C)C)cc34)cc2Cl)c1
LABEL_VALUE: TRUE
//
LINE_NOTATION: OCCNCCCOc1ccc2ncnc(Nc3ccc(Oc4cccc(C(F)(F)F)c4)c(Cl)c3)c2c1
LABEL_VALUE: FALSE
//
LINE_NOTATION: FC(F)(F)c1cccc(Oc2ccc(Nc3ncnc4ccc(OCCCN5CCOCC5)cc34)cc2Cl)c1
LABEL_VALUE: FALSE

Okay, now this compound:
Problem: For the compound CCN(CC)CCCOc1ccc2ncnc(Nc3ccc(Oc4cccc(C(F)(F)F)c4)c(Cl)c3)c2c1 , is GI50 under 0.4 µM?
FALSE

* * *

Tested on: MDA-MB-468
Test: Antiproliferative activity against human MDA-MB-468 cells assessed as lethality at 10 uM after 48 hrs by SRB assay relative to control
Type: functional
READOUT_KIND: Activity (%)
Numbers only, in %.

Here's what some known entries look like.
LINE_NOTATION: CN1CCN(CCCOc2ccc3ncnc(Nc4ccc(Oc5cccc(C(F)(F)F)c5)c(Cl)c4)c3c2)CC1
READOUT_KIND: Activity
VALUE: 18

LINE_NOTATION: OCCNCCCOc1ccc2ncnc(Nc3ccc(Oc4cccc(C(F)(F)F)c4)c(Cl)c3)c2c1
READOUT_KIND: Activity
VALUE: 18

LINE_NOTATION: O=C(Nc1ccc2ncnc(Nc3ccc(Oc4cccc(F)c4)c(Cl)c3)c2c1)c1ccc(CNCCO)cc1
READOUT_KIND: Activity
VALUE: 18

LINE_NOTATION: CN1CCN(CC(=O)Nc2ccc3ncnc(Nc4ccc(Oc5cccc(C(F)(F)F)c5)c(Cl)c4)c3c2)CC1
READOUT_KIND: Activity
VALUE: 11.7

LINE_NOTATION: CCN(CC)CCCOc1ccc2ncnc(Nc3ccc(Oc4cccc(C(F)(F)F)c4)c(Cl)c3)c2c1
READOUT_KIND: Activity
VALUE: 11.7

Hi team, please reply with Activity for each item in this list.
1. Cc1cccc(Oc2ccc(Nc3ncnc4ccc(NC(=O)CN5CCN(C)CC5)cc34)cc2Cl)c1
2. CN1CCN(CCCOc2ccc3ncnc(Nc4ccc(OCc5cccc(F)c5)c(Cl)c4)c3c2)CC1
3. CN(C)Cc1ccc(C(=O)Nc2ccc3ncnc(Nc4ccc(Oc5cccc(F)c5)c(Cl)c4)c3c2)cc1

1: 18; 2: 11.7; 3: 11.7

* * *

System: MCF7
Experiment: Antiproliferative activity against human MCF7 cells assessed as reduction in cell viability incubated for 72 hrs by WST8 assay
Assay type: functional, cell-based
Details: MCF7, 72 h
READOUT_KIND: pIC50
One number for each entry, as −log10 of the molar value.

Here's what some known entries look like.
LINE_NOTATION: O=C(CN1CCOCC1)Nc1ccc2ncnc(Nc3ccc(Oc4cccc(F)c4)c(Cl)c3)c2c1
pIC50: 4.74

LINE_NOTATION: FC(F)(F)c1cccc(Oc2ccc(Nc3ncnc4ccc(OCCCN5CCOCC5)cc34)cc2Cl)c1
pIC50: 5.26

Hi team, please reply with pIC50 for each item in this list.
1. CCN(CC)CC(=O)Nc1ccc2ncnc(Nc3ccc(Oc4cccc(C)c4)c(Cl)c3)c2c1
2. CN1CCN(CC(=O)Nc2ccc3ncnc(Nc4ccc(Oc5cccc(C(F)(F)F)c5)c(Cl)c4)c3c2)CC1

[5.57, 5.68]

Hi team, please reply with pIC50 for each item in this list.
1. OCCNCCCOc1ccc2ncnc(Nc3ccc(Oc4cccc(C(F)(F)F)c4)c(Cl)c3)c2c1
2. Cc1cccc(Oc2ccc(Nc3ncnc4ccc(NC(=O)CN5CCOCC5)cc34)cc2Cl)c1
3. Cc1cccc(Oc2ccc(Nc3ncnc4ccc(NC(=O)CN(C)C)cc34)cc2Cl)c1
4. CN1CCN(CC(=O)Nc2ccc3ncnc(Nc4ccc(Oc5cccc(F)c5)c(Cl)c4)c3c2)CC1
5. Fc1cccc(COc2ccc(Nc3ncnc4ccc(OCCCN5CCOCC5)cc34)cc2Cl)c1
6. O=C(CN1CCOCC1)Nc1ccc2ncnc(Nc3ccc(Oc4cccc(C(F)(F)F)c4)c(Cl)c3)c2c1

5.82
5.02
5.57
5.22
5.21
4.95

Hi team, please reply with pIC50 for each item in this list.
1. O=C(Nc1ccc2ncnc(Nc3ccc(Oc4cccc(F)c4)c(Cl)c3)c2c1)c1ccc(CN2CCOCC2)cc1
2. CN1CCN(CCCOc2ccc3ncnc(Nc4ccc(Oc5cccc(C(F)(F)F)c5)c(Cl)c4)c3c2)CC1
3. CCN(CC)CCCOc1ccc2ncnc(Nc3ccc(Oc4cccc(C(F)(F)F)c4)c(Cl)c3)c2c1

1: 5.21; 2: 5.77; 3: 5.80

The origin of these recorded values is ChEMBL document CHEMBL4715878.
